Test system: HBV
Experiment: Anti-viral assay in HepG2.2.15 cells: anti-HBV activity, HBV DNA in culture medium by qPCR
Format: cell-based
Details: Hepatitis B virus, HepG2.2.15, 144 h, HepG2.2.15 cells, 6 days treatment, HBV DNA by qPCR; read-out: EC50
Each entry belongs to exactly one class, chosen by where its EC50 falls: bucket 1 = under 3 nM, bucket 2 = from 3 nM up to 10 nM, bucket 3 = 10 nM and over

[2H][C@@]1(c2cccc(F)c2C)N=C(c2nccs2)NC(CN2CCN3C(=S)N(CC(C)(C)C(=O)O)C[C@@H]3C2)=C1C(=O)OCC (single isomer, unassigned) [Compound 36B] = bucket 1
CCOC(=O)C1=C(CN2CCN3C(=S)N(CC(C)(C)C(=O)O)C[C@@H]3C2)NC(c2nccs2)=N[C@@H]1c1ccc(F)nc1C (single isomer, unassigned) = bucket 3
COC(=O)C1=C(CN2CCN3C(=S)N(CC(C)(C)C(=O)O)CC3C2)NC(c2nccs2)=NC1c1ccc(F)c(F)c1C (single isomer, unassigned) [Compound 12B] = bucket 1
CCOC(=O)C1=C(CN2CCN3C(=S)N(CC(C)(C)C(=O)O)C[C@@H]3C2)NC(c2ncoc2C)=N[C@H]1c1ccc(F)cc1Cl (single isomer, unassigned) [Compound 33A] = bucket 3
CCOC(=O)C1=C(CN2CCN3C(=S)N(CC(C)C(=O)O)C[C@@H]3C2)NC(c2nccs2)=N[C@H]1c1cccc(F)c1C (single isomer, unassigned) [Compound 27A] = bucket 2
COC(=O)C1=C(CN2CCN3C(=S)N(CC(C)(C)C(=O)O)C[C@@H]3C2)NC(c2nccs2)=N[C@H]1c1cccc(F)c1Cl (single isomer, unassigned) [Compound 20A] = bucket 2
CCOC(=O)C1=C(CN2CCN3C(=S)N(CC(C)(C)C(=O)O)CC3C2)NC(c2nccs2)=NC1c1ccc(F)c(F)c1Cl (single isomer, unassigned) [Compound 14A] = bucket 1
COC(=O)C1=C(CN2CCN3C(=S)N(CC(C)(C)C(=O)O)CC3C2)NC(c2ncoc2C)=NC1c1cccc(F)c1C (single isomer, unassigned) [Compound 31A] = bucket 3
CCOC(=O)C1=C(CN2CCN3C(=S)N(CC(C)(C)C(=O)O)CC3C2)NC(c2nccs2)=NC1c1ccc(F)cc1Br (single isomer, unassigned) [Compound 13A] = bucket 1
CCOC(=O)C1=C(CN2CCN3C(=S)N(CC(CC)C(=O)O)CC3C2)NC(c2nccs2)=N[C@H]1c1cccc(F)c1C (some centres unmarked) = bucket 2
COC(=O)C1=C(CN2CCN3C(=S)N(CC(C)(C)C(=O)O)C[C@@H]3C2)NC(c2nccs2)=N[C@H]1c1ccc(F)cc1Br (single isomer, unassigned) [Compound 16B] = bucket 3
